The values you see were collected from patent US20090221691A1.

# target-desc: biotinylated Gβ1γ2 mutant Trp99Ala (rat) (UniProt P54311)
# Sequence (P54311 whole entry W99A, chain 1 of 2): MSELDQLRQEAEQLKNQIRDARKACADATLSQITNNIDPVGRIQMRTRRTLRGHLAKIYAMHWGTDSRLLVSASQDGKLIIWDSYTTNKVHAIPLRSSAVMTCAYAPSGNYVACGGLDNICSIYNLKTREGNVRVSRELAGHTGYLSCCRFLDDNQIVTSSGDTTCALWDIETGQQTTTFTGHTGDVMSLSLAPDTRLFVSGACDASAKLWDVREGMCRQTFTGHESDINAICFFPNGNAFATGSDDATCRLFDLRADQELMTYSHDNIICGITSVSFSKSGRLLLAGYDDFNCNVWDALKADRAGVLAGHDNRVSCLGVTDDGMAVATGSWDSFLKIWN
# Sequence (P63212 2-68, chain 2 of 2, further chain): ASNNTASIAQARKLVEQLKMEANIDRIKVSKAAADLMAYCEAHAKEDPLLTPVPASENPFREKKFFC
# procedure-details: phage ELISA, % of wild-type b-βγ
result-type: % of Wild-Type Signal (%)
One number for each entry, in %.

Previously resolved entries follow.
Task: Retrieve % of Wild-Type Signal measured for SCEKRLGVRSCT (Group III) [phage C5 (SCEKRLGVRSCT)] and print it.
Output: 39

Task: Entry SCGHGLKVQSTIGACA (Group II) [phage 3C (SCGHGLKVQSTIGACA)] needs its % of Wild-Type Signal filled in; supply it.
Output: -0.5

Provide % of Wild-Type Signal values for the following items, in order.
1. WCPPKAMTQLGIKAC (Group II) [phage C14 (WCPPKAMTQLGIKAC)]
2. SIGKALFILGYPDYD [phage 3.14 (SIGKALFILGYPDYD)]

Output:
1: 10.1; 2: 66
